IC50 by entry:
System: EZH2PRC2 mutant Y641N (Homo sapiens, UniProt Q15910, Y641N)
Sequence (Q15910 whole entry Y641N): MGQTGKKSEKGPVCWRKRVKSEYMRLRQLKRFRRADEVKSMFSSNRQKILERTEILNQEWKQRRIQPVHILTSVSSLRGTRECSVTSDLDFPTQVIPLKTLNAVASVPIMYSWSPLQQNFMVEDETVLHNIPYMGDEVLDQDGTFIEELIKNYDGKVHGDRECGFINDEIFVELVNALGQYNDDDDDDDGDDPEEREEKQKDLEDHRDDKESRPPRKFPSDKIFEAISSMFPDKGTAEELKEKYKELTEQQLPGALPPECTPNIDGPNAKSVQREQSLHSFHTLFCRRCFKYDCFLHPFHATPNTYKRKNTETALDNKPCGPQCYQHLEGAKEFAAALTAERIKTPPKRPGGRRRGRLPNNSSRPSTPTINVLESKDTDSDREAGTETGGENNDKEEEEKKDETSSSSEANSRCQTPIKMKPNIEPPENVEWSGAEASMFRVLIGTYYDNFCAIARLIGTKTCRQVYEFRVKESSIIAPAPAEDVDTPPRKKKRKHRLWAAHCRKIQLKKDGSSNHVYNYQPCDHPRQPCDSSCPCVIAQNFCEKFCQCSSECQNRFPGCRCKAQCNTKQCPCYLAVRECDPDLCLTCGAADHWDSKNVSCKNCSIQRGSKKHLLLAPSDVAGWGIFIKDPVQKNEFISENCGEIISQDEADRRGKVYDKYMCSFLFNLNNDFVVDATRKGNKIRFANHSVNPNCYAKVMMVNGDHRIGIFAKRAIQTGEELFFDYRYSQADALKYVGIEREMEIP
Sequence (O75530 whole entry partner): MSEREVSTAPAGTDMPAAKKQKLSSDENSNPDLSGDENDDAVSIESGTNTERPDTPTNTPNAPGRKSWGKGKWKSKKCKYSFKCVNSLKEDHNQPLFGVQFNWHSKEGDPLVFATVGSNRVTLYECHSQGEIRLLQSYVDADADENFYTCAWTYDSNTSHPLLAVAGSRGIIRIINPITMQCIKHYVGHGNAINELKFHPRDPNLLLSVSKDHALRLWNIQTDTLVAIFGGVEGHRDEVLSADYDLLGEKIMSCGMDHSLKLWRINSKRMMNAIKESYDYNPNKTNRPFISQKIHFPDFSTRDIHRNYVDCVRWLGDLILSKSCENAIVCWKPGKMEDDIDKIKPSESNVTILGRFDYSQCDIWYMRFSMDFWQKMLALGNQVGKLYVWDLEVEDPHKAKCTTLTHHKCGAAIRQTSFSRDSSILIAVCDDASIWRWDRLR
Sequence (Q15022 whole entry partner): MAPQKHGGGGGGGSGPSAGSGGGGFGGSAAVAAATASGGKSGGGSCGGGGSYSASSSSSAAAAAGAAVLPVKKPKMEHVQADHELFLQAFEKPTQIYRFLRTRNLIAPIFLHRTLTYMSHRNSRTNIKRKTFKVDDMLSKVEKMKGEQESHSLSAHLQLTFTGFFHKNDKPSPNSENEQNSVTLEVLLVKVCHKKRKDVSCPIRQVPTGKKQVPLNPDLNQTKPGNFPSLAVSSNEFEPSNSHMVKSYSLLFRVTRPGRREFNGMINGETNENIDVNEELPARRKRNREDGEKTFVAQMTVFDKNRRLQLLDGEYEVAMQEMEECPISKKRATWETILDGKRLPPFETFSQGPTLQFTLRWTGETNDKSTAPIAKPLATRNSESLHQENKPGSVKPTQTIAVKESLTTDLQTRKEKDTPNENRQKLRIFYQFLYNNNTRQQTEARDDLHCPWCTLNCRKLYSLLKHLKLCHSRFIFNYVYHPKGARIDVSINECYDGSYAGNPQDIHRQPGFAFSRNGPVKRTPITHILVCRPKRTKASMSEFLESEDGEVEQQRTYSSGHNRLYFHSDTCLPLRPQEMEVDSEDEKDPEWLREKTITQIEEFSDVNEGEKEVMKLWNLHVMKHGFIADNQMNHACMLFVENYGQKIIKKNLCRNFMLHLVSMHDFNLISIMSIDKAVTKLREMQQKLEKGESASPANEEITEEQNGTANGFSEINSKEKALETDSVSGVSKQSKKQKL
Sequence (Q09028 whole entry partner): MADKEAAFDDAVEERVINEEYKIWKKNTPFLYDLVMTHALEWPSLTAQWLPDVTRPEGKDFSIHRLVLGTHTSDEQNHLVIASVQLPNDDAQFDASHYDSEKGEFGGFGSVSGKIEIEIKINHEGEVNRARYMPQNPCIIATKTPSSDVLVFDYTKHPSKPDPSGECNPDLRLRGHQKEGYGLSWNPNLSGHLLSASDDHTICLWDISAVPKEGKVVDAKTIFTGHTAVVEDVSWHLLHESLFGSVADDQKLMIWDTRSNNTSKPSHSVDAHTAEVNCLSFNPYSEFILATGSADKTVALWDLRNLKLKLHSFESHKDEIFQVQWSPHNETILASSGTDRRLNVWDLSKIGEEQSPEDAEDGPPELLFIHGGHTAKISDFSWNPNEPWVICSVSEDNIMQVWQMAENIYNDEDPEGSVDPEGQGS
Method summary: EZH2PRC2 mutant Y641N nucleosome assay
Type: biochemical
Condition context: read-out: EZH2PCR2 Mutant Y641N IC50

>  <Line notation>
Cc1cc(C)c(CNC(=O)c2cccc(-c3ccnn3C)c2C)c(=O)[nH]1

>  <Unit of measure>
µM

>  <Inequality symbol>
=

>  <IC50>
5.53

$$$$
>  <Line notation>
COc1cccc(C(=O)NCc2c(C)cc(C)[nH]c2=O)c1C#N

>  <Unit of measure>
µM

>  <Inequality symbol>
>

>  <IC50>
200

$$$$
>  <Line notation>
COc1cccc(C(=O)NCc2c(C)cc(C)[nH]c2=O)c1C

>  <Unit of measure>
µM

>  <Inequality symbol>
=

>  <IC50>
50.4

$$$$
>  <Line notation>
Cc1cc(C)c(CNC(=O)c2cc(-c3ccc4c(c3)CS(=O)(=O)C4)cc(-c3ccnn3C)c2C)c(=O)[nH]1

>  <Unit of measure>
µM

>  <Inequality symbol>
=

>  <IC50>
0.35

$$$$
>  <Line notation>
CCCc1cc(C)[nH]c(=O)c1CNC(=O)c1cc(-c2cnn(C)c2)cc(OC(C)C)c1Cl

>  <Unit of measure>
µM

>  <Inequality symbol>
=

>  <IC50>
5.15

$$$$
>  <Line notation>
Cc1cc(C)c(CNC(=O)c2ncnc(N3CCN(c4ncccn4)C[C@@H]3C)c2C)c(=O)[nH]1

>  <Unit of measure>
µM

>  <Inequality symbol>
=

>  <IC50>
1.31

$$$$
>  <Line notation>
Cc1cc(C)c(CNC(=O)c2cc(-c3cnc(N)nc3)cc(-c3ccnn3C)c2C)c(=O)[nH]1

>  <Unit of measure>
µM

>  <Inequality symbol>
=

>  <IC50>
1.33

$$$$
>  <Line notation>
CCOc1cccc(C(=O)NCc2c(C)cc(C)[nH]c2=O)c1C

>  <Unit of measure>
µM

>  <Inequality symbol>
=

>  <IC50>
19.8

$$$$

====

IC50 by entry:
System: WT EZH2 (EZH2 4 protein complex: EZH2, EED, SUZ12, RbAp48) (Homo sapiens, UniProt O75530+Q09028+Q15022+Q15910)
Sequence (Q15910 whole entry, one chain of several): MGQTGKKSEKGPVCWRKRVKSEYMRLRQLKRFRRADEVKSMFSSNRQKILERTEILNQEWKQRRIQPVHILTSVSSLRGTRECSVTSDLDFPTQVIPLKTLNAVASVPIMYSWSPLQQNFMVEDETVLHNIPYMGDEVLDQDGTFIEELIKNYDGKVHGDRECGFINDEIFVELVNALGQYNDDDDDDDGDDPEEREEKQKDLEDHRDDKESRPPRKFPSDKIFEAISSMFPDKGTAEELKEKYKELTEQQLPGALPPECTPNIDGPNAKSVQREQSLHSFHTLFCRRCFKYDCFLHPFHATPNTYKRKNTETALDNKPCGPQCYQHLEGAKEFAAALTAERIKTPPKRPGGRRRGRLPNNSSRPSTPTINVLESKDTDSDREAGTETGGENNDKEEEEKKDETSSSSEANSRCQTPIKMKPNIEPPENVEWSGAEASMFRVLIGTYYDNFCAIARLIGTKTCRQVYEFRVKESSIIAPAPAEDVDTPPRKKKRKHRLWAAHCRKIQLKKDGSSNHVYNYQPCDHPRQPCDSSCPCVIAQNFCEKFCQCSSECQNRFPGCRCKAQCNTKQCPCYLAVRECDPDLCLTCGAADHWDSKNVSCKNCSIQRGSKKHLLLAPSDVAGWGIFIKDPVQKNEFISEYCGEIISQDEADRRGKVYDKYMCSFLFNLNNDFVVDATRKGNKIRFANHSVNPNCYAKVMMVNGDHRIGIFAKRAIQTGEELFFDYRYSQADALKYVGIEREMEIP
Method summary: WT EZH2 nucleosome assay
Format: biochemical
Condition context: nucleosome assay, 5 nM EZH2 4-protein complex, 1.5 μM SAM; read-out: WT EZH2 IC50

>  <Line notation>
Cc1cc(C(F)(F)F)[nH]c(=O)c1CNC(=O)c1cc(Cl)cc(-c2ccnn2C)c1C

>  <IC50>
> 200 µM

$$$$
>  <Line notation>
CCn1ncc(C)c1-c1cccc(C(=O)NCc2c(C)c(Cl)c(C)[nH]c2=O)c1C

>  <IC50>
> 200 µM

$$$$
>  <Line notation>
Cc1noc([C@H]2CCCN2c2ncnc(C(=O)NCc3c(C)cc(C)[nH]c3=O)c2C)n1

>  <IC50>
> 200 µM

$$$$

====

System: WT EZH2 (EZH2 4 protein complex: EZH2, EED, SUZ12, RbAp48) (Homo sapiens, UniProt O75530+Q09028+Q15022+Q15910)
Method summary: WT EZH2 nucleosome assay
Format: biochemical
Condition context: nucleosome assay, 5 nM EZH2 4-protein complex, 1.5 μM SAM; read-out: WT EZH2 IC50
Method: Nucleosome Assay Protocol: A. Compound preparation • 1. Prepare 10 mM stock solutions in 100% DMSO from solid material • 2. Serial dilute 10 mM compound stocks either 2 or 3-fold in 100% DMSO to generate compounds for 11 point dose response B. Reagent preparation • 1. Prepare 1× assay buffer containing 100 mM Tris pH 8.5, 4 mM DTT and 0.01% Tween-20 • 2. […] D. Data analysis • 1. IC50 values were determined by fitting the data to a 4-parameter IC50 equation using proprietary curve fitting software. […]
log10 IC50 by entry:
Assay endpoint: log10 IC50 (log10 of the value in µM)

>  <Molecule>
Cc1cc(C)c(CNC(=O)c2ncnc(N3CCC[C@@H]3CO)c2C)c(=O)[nH]1

>  <log10 IC50>
1.94

$$$$
>  <Molecule>
Cc1cc(C)c(CNC(=O)c2cccc(-c3c(Cl)cnn3C)c2C)c(=O)[nH]1

>  <log10 IC50>
-0.42

$$$$
>  <Molecule>
Cc1cc(C)c(CNC(=O)c2cc(-c3cnn(C)c3)cc(OC(C)C)c2Cl)c(=O)[nH]1

>  <log10 IC50>
-0.03

$$$$
>  <Molecule>
Cc1cc(C)c(CNC(=O)c2nc(-c3cncnc3)nc(-c3ccnn3C)c2C)c(=O)[nH]1

>  <log10 IC50>
0.88

$$$$
>  <Molecule>
Cc1cc(C)c(CNC(=O)c2nc(OCc3cncnc3)nc(-c3ccnn3C)c2C)c(=O)[nH]1

>  <log10 IC50>
0.82

$$$$
>  <Molecule>
COCC1CCN(c2ncnc(C(=O)NCc3c(C)cc(C)[nH]c3=O)c2C)C1 (centres unmarked)

>  <log10 IC50>
1.91

$$$$
>  <Molecule>
Cc1cc(C)c(CNC(=O)c2nc(OCCN3CC(F)C3)nc(-c3ccnn3C)c2C)c(=O)[nH]1

>  <log10 IC50>
1.36

$$$$
>  <Molecule>
Cc1cc(C)c(CNC(=O)c2cccc(-n3cnnc3C)c2C)c(=O)[nH]1

>  <log10 IC50>
1.39

$$$$

====

log10 IC50 by entry:
System: WT EZH2 (EZH2 4 protein complex: EZH2, EED, SUZ12, RbAp48) (Homo sapiens, UniProt O75530+Q09028+Q15022+Q15910)
Method summary: WT EZH2 nucleosome assay
Assay type: biochemical
Condition context: nucleosome assay, 5 nM EZH2 4-protein complex, 1.5 μM SAM; read-out: WT EZH2 IC50
Assay endpoint: log10 IC50 (log10 of the value in µM)

>  <Line notation>
Cc1cc(C)c(CNC(=O)c2nc(C3CC3)nc(N3CCC[C@@H]3C)c2C)c(=O)[nH]1

>  <log10 IC50>
0.45

$$$$
>  <Line notation>
Cc1cc(C)c(CNC(=O)c2nc(N(C)C)nc(N3CCC[C@@H]3C)c2C)c(=O)[nH]1

>  <log10 IC50>
1.22

$$$$
>  <Line notation>
Cc1cc(C)c(CNC(=O)c2nc(Cl)nc(N3CCOC[C@@H]3C)c2C)c(=O)[nH]1

>  <log10 IC50>
0.08

$$$$
>  <Line notation>
Cc1cc(C)c(CNC(=O)c2ncnc(N3CCC[C@@H]3C#N)c2C)c(=O)[nH]1

>  <log10 IC50>
1.47

$$$$
>  <Line notation>
Cc1cc(C)c(CNC(=O)c2nc(Cl)nc(N3C4CCC3CC4)c2C)c(=O)[nH]1

>  <log10 IC50>
0.01

$$$$
>  <Line notation>
Cc1cc(C)c(CNC(=O)c2cc(-c3cnn(C)c3)nc(OC(C)C)c2Cl)c(=O)[nH]1

>  <log10 IC50>
-0.11

$$$$
>  <Line notation>
COc1nc(C(=O)NCc2c(C)cc(C)[nH]c2=O)c(C)c(-c2ccnn2C)n1

>  <log10 IC50>
1.35

$$$$
>  <Line notation>
CCOc1cccc(C(=O)NCc2c(C)cc(C)[nH]c2=O)c1C

>  <log10 IC50>
0.26

$$$$
>  <Line notation>
Cc1cc(C)c(CNC(=O)c2ncnc(N3CCOC[C@@H]3C)c2C)c(=O)[nH]1

>  <log10 IC50>
0.83

$$$$
>  <Line notation>
Cc1cc(C)c(CNC(=O)c2nc(Cl)nc(N3CCC[C@@H]3C)c2C)c(=O)[nH]1

>  <log10 IC50>
0.04

$$$$
>  <Line notation>
Cc1cc(C)c(CNC(=O)c2nc(C3CC3)nc(-c3ccnn3C)c2C)c(=O)[nH]1

>  <log10 IC50>
1.20

$$$$
>  <Line notation>
Cc1cc(C)c(CNC(=O)c2nc(N3CCOCC3)nc(N3CCC[C@@H]3C)c2C)c(=O)[nH]1

>  <log10 IC50>
0.89

$$$$
>  <Line notation>
Cc1cc(C)c(CNC(=O)c2nc(O[C@H]3CCOC3)nc(-c3ccnn3C)c2C)c(=O)[nH]1

>  <log10 IC50>
1.45

$$$$
>  <Line notation>
Cc1cc(C)c(CNC(=O)c2nc(OC(C)C)nc(N3CCC[C@@H]3C)c2C)c(=O)[nH]1

>  <log10 IC50>
0.51

$$$$
>  <Line notation>
Cc1cc(C)c(CNC(=O)c2cccc(-c3ccnn3C)c2Cl)c(=O)[nH]1

>  <log10 IC50>
-0.15

$$$$
>  <Line notation>
Cc1cc(C)c(CNC(=O)c2cc(-c3ccc4c(c3)CS(=O)(=O)C4)cc(-c3ccnn3C)c2C)c(=O)[nH]1

>  <log10 IC50>
-1.38

$$$$
>  <Line notation>
Cc1cc(C)c(CNC(=O)c2cccc(-c3c(C#N)cnn3C)c2C)c(=O)[nH]1

>  <log10 IC50>
0.84

$$$$
>  <Line notation>
COc1c(OC(C)C)cccc1C(=O)NCc1c(C)cc(C)[nH]c1=O

>  <log10 IC50>
1.43

$$$$
